Attribution: ChEMBL document CHEMBL1799922

# ASSAY_REMARKS: Cytotoxicity against human U937 cells assessed as cell viability at 10 ug/ml after 72 hrs by MTT assay
# Assay type: cell-based, U-937
# MEASUREMENT_CONTEXT: read-out: Activity
Task for the reader: assign each of the following compounds its reported viability at 72 h, 10 ug/ml.
Numbers only, in %.

Worked examples follow.
>>> numeric_value("CN(C)C(=O)O/N=C1\\c2ccccc2-c2c1c(N1CCN(c3ccccn3)CC1)nc1ccc(Br)cc21")
68
>>> numeric_value("C[C@H](NC(=O)OC(C)(C)C)C(=O)O/N=C1\\c2ccccc2-c2c1c(N1CCN(c3ccccn3)CC1)nc1ccc(Br)cc21")
100
>>> numeric_value("CCCCCC(=O)O/N=C1\\c2ccccc2-c2c1c(-n1ccnc1)nc1ccc(Br)cc21")
100

Could I get viability at 72 h, 10 ug/ml for every one of these entries?
1. CCCCCCC(=O)OC1(C)c2ccccc2-c2c1c(-n1ccnc1)nc1ccc(Br)cc21 (stereo not drawn)
2. CC(=O)OC1(C)c2ccccc2-c2c1c(-n1ccnc1)nc1ccc(Br)cc21 (stereo not drawn)
3. CC(=O)NCC(=O)O/N=C1\c2ccccc2-c2c1c(N1CCN(c3ccccn3)CC1)nc1ccc(Br)cc21
4. CCCCCCCCC(=O)OC1(C)c2ccccc2-c2c1c(-n1ccnc1)nc1ccc(Br)cc21 (stereo not drawn)
5. CC(=O)O/N=C1\c2ccccc2-c2c1c(-n1ccnc1)nc1ccc(Br)cc21
6. CCCC(=O)O/N=C1\c2ccccc2-c2c1c(-n1ccnc1)nc1ccc(Br)cc21
7. CCCCCC(=O)O/N=C1\c2ccccc2-c2c1c(N1CCN(c3ccccn3)CC1)nc1ccc(Br)cc21

Ans:
1: 68; 2: 63; 3: 77; 4: 71; 5: 59; 6: 69; 7: 85

Could I get viability at 72 h, 10 ug/ml for every one of these entries?
1. CC(C)(C)OC(=O)N1CCC[C@H]1C(=O)O/N=C1\c2ccccc2-c2c1c(-n1ccnc1)nc1ccc(Br)cc21
2. CCCCCCCCC(=O)O/N=C1\c2ccccc2-c2c1c(-n1ccnc1)nc1ccc(Br)cc21
3. CC(C)(C)OC(=O)NCC(=O)O/N=C1\c2ccccc2-c2c1c(N1CCN(c3ccccn3)CC1)nc1ccc(Br)cc21

Ans:
1: 74; 2: 77; 3: 63
